Assay: Evaluation of conversion rate to active form in buffer solution (Experimental Example 1)
Format: physicochemical
Details: pH6.0, 0 hr
MEASUREMENT KIND: Production rate of Alvocidib (%)

CNCCN(C)C(=O)Oc1cc(O)c2c(=O)cc(-c3ccccc3Cl)oc2c1[C@H]1CCN(C)C[C@H]1O [Comparative Example 14, reference compound]    1.9
CC(C)[C@H](N)C(=O)O[C@@H]1CN(C)CC[C@@H]1c1c(O)cc(O)c2c(=O)cc(-c3ccccc3Cl)oc12 [Comparative Example 10, reference compound]    2.1
CN1CC[C@H](c2c(O)cc(O)c3c(=O)cc(-c4ccccc4Cl)oc23)[C@H](OC(=O)CN)C1 [Comparative Example 8, reference compound]    16.3
CNC(=O)Oc1cc(O)c2c(=O)cc(-c3ccccc3Cl)oc2c1[C@H]1CCN(C)C[C@H]1O [Comparative Example 2, reference compound]    3.3
C[C@H](N)C(=O)O[C@@H]1CN(C)CC[C@@H]1c1c(O)cc(O)c2c(=O)cc(-c3ccccc3Cl)oc12 [Comparative Example 7, reference compound]    3.4
CN1CC[C@H](c2c(OC(=O)N(C)CCN)cc(O)c3c(=O)cc(-c4ccccc4Cl)oc23)[C@H](O)C1 [Comparative Example 13, reference compound]    0.0
CN1CC[C@H](c2c(O)cc(O)c3c(=O)cc(-c4ccccc4Cl)oc23)[C@H](OC(=O)[C@@H](N)CO)C1 [Comparative Example 9, reference compound]    5.0

====

Documented Residual rate across a set of compounds
Experiment: Evaluation of conversion rate to active form in buffer solution (Experimental Example 1)
Format: physicochemical
Conditions: pH6.5, 0.5 hr, 37° C., 25 umol/L in buffer solution
MEASUREMENT KIND: Residual rate (%)

CCCN(C[C@@H]1CCCCN1)C(=O)Oc1cc(O)c2c(=O)cc(-c3ccccc3Cl)oc2c1[C@H]1CCN(C)C[C@H]1O [Example 5]    88.9
CCNC(=O)Oc1cc(O)c2c(=O)cc(-c3ccccc3Cl)oc2c1[C@H]1CCN(C)C[C@H]1O [Comparative Example 1, reference compound]    1.3
CCCN(CC1CCCCN1)C(=O)Oc1cc(O)c2c(=O)cc(-c3ccccc3Cl)oc2c1[C@H]1CCN(C)C[C@H]1O (some centres unmarked) [Example 9]    86.4
CC(C)N(CC1CCCCN1)C(=O)Oc1cc(O)c2c(=O)cc(-c3ccccc3Cl)oc2c1[C@H]1CCN(C)C[C@H]1O (some centres unmarked) [Example 10]    82.4
CCN(C[C@H]1CCCCN1)C(=O)Oc1cc(O)c2c(=O)cc(-c3ccccc3Cl)oc2c1[C@H]1CCN(C)C[C@H]1O [Example 2]    87.4
CCN(C[C@@H]1CCCCN1)C(=O)Oc1cc(O)c2c(=O)cc(-c3ccccc3Cl)oc2c1[C@H]1CCN(C)C[C@H]1O [Example 1, ditrifluoroacetate]    90.2
CCN(CCC1CCCCN1)C(=O)Oc1cc(O)c2c(=O)cc(-c3ccccc3Cl)oc2c1[C@H]1CCN(C)C[C@H]1O (some centres unmarked) [Example 16]    67.6
CN1CC[C@H](c2c(OC(=O)N(CCCC(F)(F)F)CC3CCCCN3)cc(O)c3c(=O)cc(-c4ccccc4Cl)oc23)[C@H](O)C1 (some centres unmarked) [Example 14]    35.2

====

Assay: Evaluation of conversion rate to active form in buffer solution (Experimental Example 1)
Format: physicochemical
Settings: pH7.4, 0 hr, 37° C., 25 umol/L in buffer solution
Method: For Examples 1 to 16 and Comparative Examples 1 to 14, the attrition rate of the test compound and the conversion rate of the test compound to Alvocidib in a buffer solution were calculated by the following method. Examples 1 to 16 and Comparative Examples 1 to 14 were each left in buffer solutions adjusted to pH 5.0, 5.5, 6.0, 6.5, 7.0 and 7.4, respectively, at a concentration of 25 umol/L at 37° C. […]
Structures can show the parent of a compound that is named as a salt.
Rule: YES for Residual rate not less than 90%, NO for anything less.

CN1CC[C@H](c2c(OC(=O)N(C)C[C@H]3CCCCN3)cc(O)c3c(=O)cc(-c4ccccc4Cl)oc23)[C@H](O)C1    YES
CN1CC[C@H](c2c(OC(=O)N(C)C[C@@H]3CCCCN3)cc(O)c3c(=O)cc(-c4ccccc4Cl)oc23)[C@H](O)C1    YES
CN1CC[C@H](c2c(OC(=O)N(CCC(F)(F)F)CC3CCCCN3)cc(O)c3c(=O)cc(-c4ccccc4Cl)oc23)[C@H](O)C1 (some centres unmarked)    NO
CCN(CCC1CCCCN1)C(=O)Oc1cc(O)c2c(=O)cc(-c3ccccc3Cl)oc2c1[C@H]1CCN(C)C[C@H]1O (some centres unmarked)    NO
CCCN(C[C@H]1CCCCN1)C(=O)Oc1cc(O)c2c(=O)cc(-c3ccccc3Cl)oc2c1[C@H]1CCN(C)C[C@H]1O    YES
CN1CC[C@H](c2c(OC(=O)N(C)CC3CCCCN3)cc(O)c3c(=O)cc(-c4ccccc4Cl)oc23)[C@H](O)C1 (some centres unmarked)    NO
CCN(CC1CCCCN1)C(=O)Oc1cc(O)c2c(=O)cc(-c3ccccc3Cl)oc2c1[C@H]1CCN(C)C[C@H]1O (some centres unmarked) [Example 7, dihydrochloride]    NO
CCCN(C[C@@H]1CCCCN1)C(=O)Oc1cc(O)c2c(=O)cc(-c3ccccc3Cl)oc2c1[C@H]1CCN(C)C[C@H]1O    YES
CN1CC[C@H](c2c(OC(=O)N(CCF)CC3CCCCN3)cc(O)c3c(=O)cc(-c4ccccc4Cl)oc23)[C@H](O)C1 (some centres unmarked)    NO
CCN(C[C@H]1CCCCN1)C(=O)Oc1cc(O)c2c(=O)cc(-c3ccccc3Cl)oc2c1[C@H]1CCN(C)C[C@H]1O    YES
COCCN(CC1CCCCN1)C(=O)Oc1cc(O)c2c(=O)cc(-c3ccccc3Cl)oc2c1[C@H]1CCN(C)C[C@H]1O (some centres unmarked)    NO
CCNC(=O)Oc1cc(O)c2c(=O)cc(-c3ccccc3Cl)oc2c1[C@H]1CCN(C)C[C@H]1O [Comparative Example 1, reference compound]    NO
CCN(C[C@@H]1CCCCN1)C(=O)Oc1cc(O)c2c(=O)cc(-c3ccccc3Cl)oc2c1[C@H]1CCN(C)C[C@H]1O [Example 1, ditrifluoroacetate]    YES
CN1CC[C@H](c2c(OC(=O)N(CCCC(F)(F)F)CC3CCCCN3)cc(O)c3c(=O)cc(-c4ccccc4Cl)oc23)[C@H](O)C1 (some centres unmarked)    NO
CCCN(CC1CCCCN1)C(=O)Oc1cc(O)c2c(=O)cc(-c3ccccc3Cl)oc2c1[C@H]1CCN(C)C[C@H]1O (some centres unmarked)    YES

====

Assay: Evaluation of conversion rate to active form in buffer solution (Experimental Example 1)
Type: physicochemical
Conditions: pH6.0, 1 hr, 37° C., 25 umol/L in buffer solution
Structures can show the parent of a compound that is named as a salt.
Flag rule - Residual rate less than 70% flags TRUE; the remaining entries get FALSE.

CN1CC[C@H](c2c(OC(=O)N(CCF)CC3CCCCN3)cc(O)c3c(=O)cc(-c4ccccc4Cl)oc23)[C@H](O)C1 (some centres unmarked)    TRUE
CCN(C[C@@H]1CCCCN1)C(=O)Oc1cc(O)c2c(=O)cc(-c3ccccc3Cl)oc2c1[C@H]1CCN(C)C[C@H]1O [Example 1, ditrifluoroacetate]    FALSE
CCN(CC1CCCCN1)C(=O)Oc1cc(O)c2c(=O)cc(-c3ccccc3Cl)oc2c1[C@H]1CCN(C)C[C@H]1O (some centres unmarked) [Example 7, dihydrochloride]    FALSE
CN1CC[C@H](c2c(OC(=O)N(C)C[C@H]3CCCCN3)cc(O)c3c(=O)cc(-c4ccccc4Cl)oc23)[C@H](O)C1    FALSE
CN1CC[C@H](c2c(OC(=O)N(C)CC3CCCCN3)cc(O)c3c(=O)cc(-c4ccccc4Cl)oc23)[C@H](O)C1 (some centres unmarked)    FALSE
CCCN(C[C@H]1CCCCN1)C(=O)Oc1cc(O)c2c(=O)cc(-c3ccccc3Cl)oc2c1[C@H]1CCN(C)C[C@H]1O    FALSE
CC(C)N(CC1CCCCN1)C(=O)Oc1cc(O)c2c(=O)cc(-c3ccccc3Cl)oc2c1[C@H]1CCN(C)C[C@H]1O (some centres unmarked)    FALSE
CCCN(C[C@@H]1CCCCN1)C(=O)Oc1cc(O)c2c(=O)cc(-c3ccccc3Cl)oc2c1[C@H]1CCN(C)C[C@H]1O    FALSE
CCCN(CC1CCCCN1)C(=O)Oc1cc(O)c2c(=O)cc(-c3ccccc3Cl)oc2c1[C@H]1CCN(C)C[C@H]1O (some centres unmarked)    FALSE
CCNC(=O)Oc1cc(O)c2c(=O)cc(-c3ccccc3Cl)oc2c1[C@H]1CCN(C)C[C@H]1O [Comparative Example 1, reference compound]    TRUE
CN1CC[C@H](c2c(OC(=O)N(Cc3ccccc3)CC3CCCCN3)cc(O)c3c(=O)cc(-c4ccccc4Cl)oc23)[C@H](O)C1 (some centres unmarked)    FALSE
CN1CC[C@H](c2c(OC(=O)N(CCCC(F)(F)F)CC3CCCCN3)cc(O)c3c(=O)cc(-c4ccccc4Cl)oc23)[C@H](O)C1 (some centres unmarked)    TRUE
CN1CC[C@H](c2c(OC(=O)N(C)C[C@@H]3CCCCN3)cc(O)c3c(=O)cc(-c4ccccc4Cl)oc23)[C@H](O)C1    FALSE
CCN(C[C@H]1CCCCN1)C(=O)Oc1cc(O)c2c(=O)cc(-c3ccccc3Cl)oc2c1[C@H]1CCN(C)C[C@H]1O    FALSE
CN1CC[C@H](c2c(OC(=O)N(CCC(F)(F)F)CC3CCCCN3)cc(O)c3c(=O)cc(-c4ccccc4Cl)oc23)[C@H](O)C1 (some centres unmarked)    TRUE

Ref: patent US12617779B2
